- Test system: Bacillus subtilis
- test_description: Antibacterial activity against Bacillus subtilis 168 incubated for 48 hrs and measured by broth microdilution assay
- Type: functional
In this section, each of the compounds is paired with its reported MIC.
observation_type: MIC

>  <smiles_entry>
N=C(N)NCCCCCCN1C(=O)N(CCCCCCNC(=N)N)C(=O)C(Cc2cc(Br)cc(Br)c2)(Cc2cc(Br)cc(Br)c2)C1=O.O=C(O)C(F)(F)F.O=C(O)C(F)(F)F

>  <system_under_test>
Bacillus subtilis

>  <result_value>
4 µg/mL

$$$$
>  <smiles_entry>
NCCCN1C(=O)N(CCCN)C(=O)C(Cc2cc(C(F)(F)F)cc(C(F)(F)F)c2)(Cc2cc(C(F)(F)F)cc(C(F)(F)F)c2)C1=O.O=C(O)C(F)(F)F.O=C(O)C(F)(F)F

>  <system_under_test>
Bacillus subtilis

>  <result_value>
4 µg/mL

$$$$
>  <smiles_entry>
CN(C)CCCCN1C(=O)N(CCCCN(C)C)C(=O)C(Cc2cc(Br)cc(Br)c2)(Cc2cc(Br)cc(Br)c2)C1=O.O=C(O)C(F)(F)F.O=C(O)C(F)(F)F

>  <system_under_test>
Bacillus subtilis

>  <result_value>
4 µg/mL

$$$$
>  <smiles_entry>
N=C(N)N[C@H]1C[C@@H](N2C(=O)N([C@H]3C[C@@H](NC(=N)N)C3)C(=O)C(Cc3cc(Br)cc(Br)c3)(Cc3cc(Br)cc(Br)c3)C2=O)C1.O=C(O)C(F)(F)F.O=C(O)C(F)(F)F

>  <system_under_test>
Bacillus subtilis

>  <result_value>
2 µg/mL

$$$$
>  <smiles_entry>
NCCCCN1C(=O)N(CCCCN)C(=O)C(Cc2cc(Br)cc(Br)c2)(C2CCCC2)C1=O.O=C(O)C(F)(F)F.O=C(O)C(F)(F)F

>  <system_under_test>
Bacillus subtilis

>  <result_value>
8 µg/mL

$$$$
>  <smiles_entry>
N=C(N)NCCCCN1C(=O)N(CCCCNC(=N)N)C(=O)C(Cc2cc(Br)c(Br)cc2Br)(Cc2cc(Br)c(Br)cc2Br)C1=O.O=C(O)C(F)(F)F.O=C(O)C(F)(F)F

>  <system_under_test>
Bacillus subtilis

>  <result_value>
4 µg/mL

$$$$

###

- System: Bacillus subtilis
- test_description: Antibacterial activity against Bacillus subtilis 168 incubated for 48 hrs and measured by broth microdilution assay
- Type: functional
observation_type: MIC (µg/mL)

>  <compound>
N=C(N)NCCCCN1C(=O)N(CCCCNC(=N)N)C(=O)C(Cc2cc(Br)cc(Br)c2)(Cc2cc(C(F)(F)F)cc(C(F)(F)F)c2)C1=O.O=C(O)C(F)(F)F.O=C(O)C(F)(F)F (stereo unspecified)

>  <result_value>
2

$$$$
>  <compound>
CNCCCCN1C(=O)N(CCCCNC)C(=O)C(Cc2cc(Br)cc(Br)c2)(Cc2cc(Br)cc(Br)c2)C1=O.O=C(O)C(F)(F)F.O=C(O)C(F)(F)F

>  <result_value>
4

$$$$
>  <compound>
N[C@H]1C[C@H](N2C(=O)N([C@H]3C[C@H](N)C3)C(=O)C(Cc3cc(Br)cc(Br)c3)(Cc3cc(Br)cc(Br)c3)C2=O)C1.O=C(O)C(F)(F)F.O=C(O)C(F)(F)F

>  <result_value>
4

$$$$
>  <compound>
NCCCCCCN1C(=O)N(CCCCCCN)C(=O)C(Cc2cc(Br)cc(Br)c2)(Cc2cc(Br)cc(Br)c2)C1=O.O=C(O)C(F)(F)F.O=C(O)C(F)(F)F

>  <result_value>
4

$$$$
>  <compound>
N=C(N)NCCCCN1C(=O)N(CCCCNC(=N)N)C(=O)C(Cc2cc(Br)cc(Br)c2)(Cc2ccc3ccccc3n2)C1=O.O=C(O)C(F)(F)F.O=C(O)C(F)(F)F (stereo unspecified)

>  <result_value>
4

$$$$
>  <compound>
N=C(N)NCCCCN1C(=O)N(CCCCNC(=N)N)C(=O)C(Cc2cc(Br)cc(Br)c2)(Cc2ccc(Br)c3ccccc23)C1=O.O=C(O)C(F)(F)F.O=C(O)C(F)(F)F (stereo unspecified)

>  <result_value>
4

$$$$

###

- System: Bacillus subtilis
- test_description: Antibacterial activity against Bacillus subtilis 168 incubated for 48 hrs and measured by broth microdilution assay
- Assay type: functional

>  <molecule>
N=C(N)NCCCN1C(=O)N(CCCNC(=N)N)C(=O)C(Cc2ccc(Br)c(Cl)c2)(Cc2ccc(Br)c(Cl)c2)C1=O.O=C(O)C(F)(F)F.O=C(O)C(F)(F)F

>  <MIC>
2 µg/mL

$$$$
>  <molecule>
N[C@H]1C[C@@H](N2C(=O)N([C@H]3C[C@@H](N)C3)C(=O)C(Cc3cc(Br)cc(Br)c3)(Cc3cc(Br)cc(Br)c3)C2=O)C1.O=C(O)C(F)(F)F.O=C(O)C(F)(F)F

>  <MIC>
4 µg/mL

$$$$
>  <molecule>
NCCCCCN1C(=O)N(CCCCCN)C(=O)C(Cc2cc(Br)cc(Br)c2)(Cc2cc(Br)cc(Br)c2)C1=O.O=C(O)C(F)(F)F.O=C(O)C(F)(F)F

>  <MIC>
4 µg/mL

$$$$
>  <molecule>
CCCCCCC1(Cc2cc(Br)cc(Br)c2)C(=O)N(CCCCN)C(=O)N(CCCCN)C1=O.O=C(O)C(F)(F)F.O=C(O)C(F)(F)F

>  <MIC>
4 µg/mL

$$$$
>  <molecule>
NCCCCN1C(=O)N(CCCCN)C(=O)C(Cc2cc(Br)c(Br)cc2Br)(Cc2cc(Br)c(Br)cc2Br)C1=O.O=C(O)C(F)(F)F.O=C(O)C(F)(F)F

>  <MIC>
4 µg/mL

$$$$
>  <molecule>
N=C(N)NCCCN1C(=O)N(CCCNC(=N)N)C(=O)C(Cc2cc(C(F)(F)F)cc(C(F)(F)F)c2)(Cc2cc(C(F)(F)F)cc(C(F)(F)F)c2)C1=O.O=C(O)C(F)(F)F.O=C(O)C(F)(F)F

>  <MIC>
2 µg/mL

$$$$
>  <molecule>
NCCCN1C(=O)N(CCCN)C(=O)C(Cc2cc(Br)cc(Br)c2)(Cc2cc(Br)cc(Br)c2)C1=O.O=C(O)C(F)(F)F.O=C(O)C(F)(F)F

>  <MIC>
4 µg/mL

$$$$
>  <molecule>
N=C(N)NCCCN1C(=O)N(CCCNC(=N)N)C(=O)C(Cc2ccc(C(F)(F)F)cc2)(Cc2cc(Br)cc(Br)c2)C1=O.O=C(O)C(F)(F)F.O=C(O)C(F)(F)F (stereo not given)

>  <MIC>
4 µg/mL

$$$$
>  <molecule>
N=C(N)NCCCCN1C(=O)N(CCCCNC(=N)N)C(=O)C(Cc2ccc3ccccc3n2)(Cc2ccc3ccccc3n2)C1=O.O=C(O)C(F)(F)F.O=C(O)C(F)(F)F

>  <MIC>
16 µg/mL

$$$$
>  <molecule>
CCCCCCC1(CCCCCC)C(=O)N(CCCCN)C(=O)N(CCCCN)C1=O.O=C(O)C(F)(F)F.O=C(O)C(F)(F)F

>  <MIC>
8 µg/mL

$$$$
>  <molecule>
N=C(N)NCCCCN1C(=O)N(CCCCNC(=N)N)C(=O)C(Cc2ccc3cc(Br)ccc3n2)(Cc2ccc3cc(Br)ccc3n2)C1=O.O=C(O)C(F)(F)F.O=C(O)C(F)(F)F

>  <MIC>
4 µg/mL

$$$$
>  <molecule>
N=C(N)NCCCCN1C(=O)N(CCCCNC(=N)N)C(=O)C(Cc2cc(Br)cc(Br)c2)(Cc2cc(Br)cc(Br)c2)C1=O.O=C(O)C(F)(F)F.O=C(O)C(F)(F)F

>  <MIC>
2 µg/mL

$$$$
>  <molecule>
CCCCCCC1(Cc2cc(Br)cc(Br)c2)C(=O)N(CCCCNC(=N)N)C(=O)N(CCCCNC(=N)N)C1=O.O=C(O)C(F)(F)F.O=C(O)C(F)(F)F (stereo not given)

>  <MIC>
4 µg/mL

$$$$
>  <molecule>
N=C(N)NCCCCN1C(=O)N(CCCCNC(=N)N)C(=O)C(Cc2ccc(C(F)(F)F)cc2)(Cc2cc(Br)cc(Br)c2)C1=O.O=C(O)C(F)(F)F.O=C(O)C(F)(F)F (stereo not given)

>  <MIC>
4 µg/mL

$$$$
>  <molecule>
NCCCCN1C(=O)N(CCCCN)C(=O)C(Cc2cc(Br)cc(Br)c2)(Cc2cc(Br)cc(Br)c2)C1=O.O=C(O)C(F)(F)F.O=C(O)C(F)(F)F

>  <MIC>
2 µg/mL

$$$$
>  <molecule>
NCCCN1C(=O)N(CCCN)C(=O)C(Cc2ccc3cc(Br)ccc3n2)(Cc2ccc3cc(Br)ccc3n2)C1=O.O=C(O)C(F)(F)F.O=C(O)C(F)(F)F

>  <MIC>
8 µg/mL

$$$$
>  <molecule>
NCCCN1C(=O)N(CCCN)C(=O)C(Cc2ccc(C(F)(F)F)cc2)(Cc2ccc(C(F)(F)F)cc2)C1=O.O=C(O)C(F)(F)F.O=C(O)C(F)(F)F

>  <MIC>
16 µg/mL

$$$$
>  <molecule>
CC(C)(C)c1ccc(CC2(Cc3cc(Br)cc(Br)c3)C(=O)N(CCCCN)C(=O)N(CCCCN)C2=O)cc1.O=C(O)C(F)(F)F.O=C(O)C(F)(F)F

>  <MIC>
4 µg/mL

$$$$
>  <molecule>
N=C(N)NCCCCN1C(=O)N(CCCCNC(=N)N)C(=O)C(Cc2c(Br)cc(Br)cc2Br)(Cc2c(Br)cc(Br)cc2Br)C1=O.O=C(O)C(F)(F)F.O=C(O)C(F)(F)F

>  <MIC>
1 µg/mL

$$$$
>  <molecule>
NCCCCN1C(=O)N(CCCCN)C(=O)C(Cc2ccc(Br)c3ccccc23)(Cc2ccc(Br)c3ccccc23)C1=O.O=C(O)C(F)(F)F.O=C(O)C(F)(F)F

>  <MIC>
2 µg/mL

$$$$
>  <molecule>
NCCCCN1C(=O)N(CCCCN)C(=O)C(Cc2ccc3ccccc3n2)(Cc2ccc3ccccc3n2)C1=O.O=C(O)C(F)(F)F.O=C(O)C(F)(F)F

>  <MIC>
64 µg/mL

$$$$
>  <molecule>
NCCCCN1C(=O)N(CCCCN)C(=O)C(Cc2cc(Br)cc(Br)c2)(Cc2ccc3ccccc3n2)C1=O.O=C(O)C(F)(F)F.O=C(O)C(F)(F)F

>  <MIC>
8 µg/mL

$$$$
>  <molecule>
NCCCCN1C(=O)N(CCCCN)C(=O)C(Cc2ccc(C(F)(F)F)cc2)(Cc2cc(Br)cc(Br)c2)C1=O.O=C(O)C(F)(F)F.O=C(O)C(F)(F)F

>  <MIC>
8 µg/mL

$$$$
>  <molecule>
N[C@H]1CC[C@H](N2C(=O)N([C@H]3CC[C@H](N)CC3)C(=O)C(Cc3cc(Br)cc(Br)c3)(Cc3cc(Br)cc(Br)c3)C2=O)CC1.O=C(O)C(F)(F)F.O=C(O)C(F)(F)F

>  <MIC>
2 µg/mL

$$$$
>  <molecule>
NCCCN1C(=O)N(CCCN)C(=O)C(Cc2ccc(C(F)(F)F)cc2)(Cc2cc(Br)cc(Br)c2)C1=O.O=C(O)C(F)(F)F.O=C(O)C(F)(F)F

>  <MIC>
8 µg/mL

$$$$
